target: pooled human IgG (human IgG1, 2, 3 and 4)
MEASUREMENT_NAME: Enzyme Activity Endpoint Assay: Fab′2 (ng/µL)
Response body: numeric value in ng/µL, unit text excluded.

Problem: Entry under review: PRT-559 (protein) MANQEIRYSEETPKTITSIWTKGVTPPTDFIKTEDVLHAPYVANQGWYDITKTFNGKDDLLCGAATAGNMLHWWFDQNKEEIENYLKKHPEKQKINFNGEQMFDVKEAIDTKDSQTDSALFEYFKDKAFPYLSTKHLGVFPDHVIDMFINGYRLSLTNHGPTPVKDGTKDPRGGIFDAVFTRGDQTKLLTERHDFKEKTLNEISDLIKQELTEGKALGLSHTYANVRINHVINLWGADFNSEGNLEAIYVTDSDSNASIGMKKYYVGVNAAGKVAISAKEIEDDNIGAQVLGLFTLSTGQDIWEQTNLEHHHHHH . Reported Enzyme Activity Endpoint Assay: Fab′2?
Result: 657

Problem: Which Enzyme Activity Endpoint Assay: Fab′2 value is on record for PRT-437 (protein) MSQTEDSESLQRLRDIEDFQAEKKKQNVVYTKWLDGVDVKDHDFRKIVDGNEAYYATPLLNGRGFYDINKDFNRDSDKCAAAVAANMFHYWLDRNRDNVDRFLRQNPEKHGIIELPDGQLKLSDFLNTYESDDGYRDKSKLFDFISNNFNGPVWTDKLLDNYINGYAYNYKYGRTIEDPTKNTSKINFFKEVFNEKILTNNHSIRNQNEFSVLLSEALYTGKAIGLSYGPAGLRHSLGHIISVWGADLDADGNVVAIYVTDSDDKKLTIGDERVGLKRYKISTDDEGRLRLTAYEETHNTGGQIRGLWTLDTGKQAWADYFDKTEQTGTDQAEQ ?
Result: 445

Problem: For the protein PRT-576 (protein) MANQEIRYSKATPSTITSVWTKGVTPPENFIYNEDVLHAPYLANQGWYDITKTFNGKDDLLCGAATAGNMLHWWFDQNKEQIERYLKKHPEKQKINFNGEQMFDVKEAIDTKDSQTNSKLFEYFKDKAFPYLSTKHLGVFPDHVIDMFINGYRLSLTNHGPTPVKEQTKDPRGGIFDAVFTRGDQSKLLTSRHDFKEKTLNEISDLIKQELTEGKALGLSHTYANVRINHVINLWGADFNAEGNLEAIYVTDSDSNASIGMKKYYVGVNSAGKVAISAKEIEGDNIGAQVLGLFTLSTGQDIWQQTNLEHHHHHH , what Enzyme Activity Endpoint Assay: Fab′2 is on record?
Result: 903

Problem: Record request: Enzyme Activity Endpoint Assay: Fab′2 value, item PRT-578 (protein) MANQEIRYSKATPKVITSVWTKGVTPPEDFTYNEDVFHAPYLPNQGWYDITKTFNGKDDLLCGAATAGNMLHWWFDQNKEQIERYLKEHPEKQKINFNGEQMFDVKEAIDTKDSQTNSKLFEYFKDKAFPYLSTKHLGVFPDHVIDMFINGYRLSLTNHGPTPVKEQNKDPRGGIFDAVFTRGDQSKLLTSRHDFKEKTLKEISDLIKQELKEGKALGLSHTYANVRINHVINLWGADFDAEGNLEAIYVTDSDSNASIGMKKYYVGVNSAGKVAISAKEIEGDNIGAQVLGLFTLSTGKDIWEQTNLEHHHHHH
Result: 698
